List of TGI values.
System: SNB-75 CNS
ASSAY COMMENT: NCI tumour cell line growth inhibition, 48 h
Output spec: scalar in µM, unitless text.

Some entries whose results are on file:
Output TGI of COc1cc(C(C)c2cc3c(cc2OCCCCOc2cc4c(cc2C(C)c2cc(OC)c(OC)c(OC)c2)OCO4)OCO3)cc(OC)c1OC (stereo not given)
69.7

Output TGI of `Oc1c(-c2ccccc2)sc2ccccc12`
52.1

Output TGI of `CC[C@@H](C(=O)[C@@H](C)[C@@H](O)[C@H](C)CCc1ccc(C)c(O)c1C(=O)O)[C@H]1O[C@](CC)([C@H]2CC[C@](O)(CC)[C@H](C)O2)C[C@@H]1C`
7.07

Continue with the molecule presented below.
Output TGI of `c1ccc2c3c([nH]c2c1)C1c2[nH]c4ccccc4c2CCN1CC3`
38.8
